molecular target: Human recombinant Acetyl-CoA Carboxylase 2 (ACC2) (Homo sapiens, UniProt O00763); test: Assay Y: ACC2 inhibition, inorganic phosphate (Malachite Green); format: biochemical; details: Assay Y: room temperature, 3 hr, 15 min preincubation
Sequence (O00763 whole entry): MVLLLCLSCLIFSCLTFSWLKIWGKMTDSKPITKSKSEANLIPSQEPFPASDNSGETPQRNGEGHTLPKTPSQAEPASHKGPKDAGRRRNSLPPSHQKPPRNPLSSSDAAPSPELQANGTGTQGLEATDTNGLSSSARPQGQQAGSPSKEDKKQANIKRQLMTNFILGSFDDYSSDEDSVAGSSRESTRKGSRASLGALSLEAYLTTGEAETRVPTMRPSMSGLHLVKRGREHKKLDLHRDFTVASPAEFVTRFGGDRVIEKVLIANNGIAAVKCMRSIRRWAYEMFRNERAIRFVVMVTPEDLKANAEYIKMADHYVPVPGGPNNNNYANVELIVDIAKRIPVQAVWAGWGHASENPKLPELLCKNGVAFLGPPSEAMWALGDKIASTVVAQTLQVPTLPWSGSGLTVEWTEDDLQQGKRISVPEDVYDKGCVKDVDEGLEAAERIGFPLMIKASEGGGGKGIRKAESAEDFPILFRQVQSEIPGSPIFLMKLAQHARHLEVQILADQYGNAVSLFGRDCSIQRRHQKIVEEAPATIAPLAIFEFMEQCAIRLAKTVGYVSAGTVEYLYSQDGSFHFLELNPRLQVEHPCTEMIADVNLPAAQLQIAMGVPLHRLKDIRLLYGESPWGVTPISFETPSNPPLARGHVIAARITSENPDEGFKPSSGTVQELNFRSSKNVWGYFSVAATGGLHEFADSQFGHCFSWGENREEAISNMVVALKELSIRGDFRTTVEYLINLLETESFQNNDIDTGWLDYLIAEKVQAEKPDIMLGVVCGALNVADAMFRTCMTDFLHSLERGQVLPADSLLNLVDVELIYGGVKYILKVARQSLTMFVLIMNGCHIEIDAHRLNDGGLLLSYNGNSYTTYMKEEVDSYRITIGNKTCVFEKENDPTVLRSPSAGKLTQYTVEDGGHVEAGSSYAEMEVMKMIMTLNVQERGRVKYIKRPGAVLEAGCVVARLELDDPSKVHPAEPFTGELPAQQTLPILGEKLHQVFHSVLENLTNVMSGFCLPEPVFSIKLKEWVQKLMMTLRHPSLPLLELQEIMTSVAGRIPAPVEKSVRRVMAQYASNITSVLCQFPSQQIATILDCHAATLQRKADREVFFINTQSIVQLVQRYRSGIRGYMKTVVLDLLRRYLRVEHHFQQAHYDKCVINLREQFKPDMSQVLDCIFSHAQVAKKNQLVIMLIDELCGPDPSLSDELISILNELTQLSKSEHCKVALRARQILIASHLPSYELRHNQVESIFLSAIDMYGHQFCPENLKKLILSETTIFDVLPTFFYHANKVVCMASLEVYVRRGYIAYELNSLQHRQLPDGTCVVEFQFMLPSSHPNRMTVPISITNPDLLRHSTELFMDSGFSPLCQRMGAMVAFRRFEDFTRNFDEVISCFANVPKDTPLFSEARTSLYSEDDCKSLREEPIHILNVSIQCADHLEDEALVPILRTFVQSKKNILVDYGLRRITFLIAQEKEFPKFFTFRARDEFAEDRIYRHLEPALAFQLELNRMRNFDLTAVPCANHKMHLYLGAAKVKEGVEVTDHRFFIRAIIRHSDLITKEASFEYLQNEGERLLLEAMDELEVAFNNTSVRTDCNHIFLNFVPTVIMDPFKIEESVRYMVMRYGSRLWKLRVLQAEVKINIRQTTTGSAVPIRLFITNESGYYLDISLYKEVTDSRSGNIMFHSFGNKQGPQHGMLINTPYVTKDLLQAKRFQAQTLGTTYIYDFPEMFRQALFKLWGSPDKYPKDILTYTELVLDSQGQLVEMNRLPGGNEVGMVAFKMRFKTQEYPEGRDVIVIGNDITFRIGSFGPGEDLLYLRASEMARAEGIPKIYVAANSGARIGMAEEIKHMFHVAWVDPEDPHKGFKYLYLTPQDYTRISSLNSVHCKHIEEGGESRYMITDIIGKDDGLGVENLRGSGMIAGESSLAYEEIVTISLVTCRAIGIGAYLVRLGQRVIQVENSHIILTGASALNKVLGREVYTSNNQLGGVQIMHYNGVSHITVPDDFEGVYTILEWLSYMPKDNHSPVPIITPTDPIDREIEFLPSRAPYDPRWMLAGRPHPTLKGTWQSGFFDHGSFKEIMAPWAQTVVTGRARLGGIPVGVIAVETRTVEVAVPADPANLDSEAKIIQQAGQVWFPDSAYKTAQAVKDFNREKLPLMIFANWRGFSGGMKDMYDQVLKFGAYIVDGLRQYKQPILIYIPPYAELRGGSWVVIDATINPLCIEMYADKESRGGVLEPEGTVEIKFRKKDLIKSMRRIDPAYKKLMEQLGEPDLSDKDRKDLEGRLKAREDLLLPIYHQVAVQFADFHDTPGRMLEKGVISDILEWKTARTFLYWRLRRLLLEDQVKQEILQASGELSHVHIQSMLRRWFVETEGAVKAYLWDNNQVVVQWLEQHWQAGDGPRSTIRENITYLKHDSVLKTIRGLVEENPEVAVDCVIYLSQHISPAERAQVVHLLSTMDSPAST
PARAMETER_MEASURED: pIC50
Scale: negative log10 of molar concentration, which is what pIC50 denotes.

Task: Param readout= pIC50; system= Human recombinant Acetyl-CoA Carboxylase 2 (ACC2) (Homo sapiens, UniProt O00763); entry= CC(=O)Nc1ccc(S(=O)(=O)NC[C@H]2CC[C@H](CNC(=O)OC(C)(C)C)CC2)cc1 [Example 73] ; returns value.
Result: 5.30

Task: Again, but for CC(C)(C)OC(=O)NC[C@H]1CC[C@H](CNC(=O)c2ccnc(-c3ccc(F)c(F)c3)c2)CC1 [Example 53]
Result: 5.04

Task: Now consider CCOC(=O)NC[C@H]1CC[C@H](CNC(=O)c2cc(-c3ccc(Cl)cc3)nc3ccccc23)CC1 [Example 32] .
Result: 5.76

Task: Now try CC(C)(C)OC(=O)NC[C@H]1CC[C@H](CNC(=O)c2cc(-c3cccnc3)nc3ccccc23)CC1 [Example 16] .
Result: 6.49

Task: Now consider CNS(=O)(=O)c1ccc(-c2cc(C(=O)NC[C@H]3CC[C@H](CNC(=O)O[C@H]4CCOC4)CC3)c3ccccc3n2)cc1 [Example 137] and answer again.
Result: 6.17

Task: Record: CCOC(=O)NC[C@H]1CC[C@H](CNC(=O)c2cc(-c3cnccn3)nc3ccccc23)CC1 [Example 26]
Result: 5.39

Task: Follow-up item: CN1CCC(OC(=O)NC[C@H]2CC[C@H](CNC(=O)c3cc(-c4ccc(N5CCN(C)CC5)nc4)nc4ccccc34)CC2)CC1 [Example 110]
Result: 5.36

---

target: Human recombinant Acetyl-CoA Carboxylase 1 (ACC1) (Homo sapiens); assay: Assay Y: ACC1 inhibition, inorganic phosphate (Malachite Green); type: biochemical; settings: Assay Y: room temperature, 3 hr, 15 min preincubation
PARAMETER_MEASURED: IC50 (nM)
Answer in nM, number only, no unit symbol.

Worked examples follow.
MOLECULE: Cc1cc(C(=O)NC[C@H]2CC[C@H](CNC(=O)OC(C)(C)C)CC2)cc(-c2ccc(CN)cc2)n1 [Example 38]
IC50 / nM: 5440
--
MOLECULE: CC(C)(C)OC(=O)NC[C@H]1CC[C@H](CNC(=O)c2cc(-c3ccc(C(=O)O)cc3)nc3ccccc23)CC1 [Example 93]
IC50 / nM: 1850
--
MOLECULE: COC(=O)NCc1cccc(-c2cc(C(=O)NC[C@H]3CC[C@H](CNC(=O)OC(C)(C)C)CC3)c3ccccc3n2)c1 [Example 101]
IC50 / nM: 2210
--
MOLECULE: CN1CCN(c2ccc(-c3cc(C(=O)NC[C@H]4CC[C@H](CNC(=O)OC(C)(C)C)CC4)c4ccccc4n3)cn2)CC1 [Example 1]
IC50 / nM: 200
--
MOLECULE: CCOC(=O)NC[C@H]1CC[C@H](CNC(=O)c2cc(-c3ccc(N4CCN(C)CC4)nc3)nc3ccccc23)CC1 [Example 119]
IC50 / nM: 2260
--
MOLECULE: COC(=O)NCc1ccc(-c2cc(C(=O)NC[C@H]3CC[C@H](CNC(=O)OC(C)(C)C)CC3)c3ccccc3n2)cc1 [Example 104]
IC50 / nM: 1600
--
MOLECULE: CC(C)(C)OC(=O)NC[C@H]1CC[C@H](CNC(=O)c2cc(-c3cccnc3)nc3ccccc23)CC1 [Example 16]
IC50 / nM: 2030
--
MOLECULE: COc1cc(C(=O)NC[C@H]2CC[C@H](CNC(=O)OC(C)(C)C)CC2)cc(-c2ccc(CN)cc2)n1 [Example 36]
IC50 / nM: 3950

--- query ---
Task: Tell me the measured IC50 of CN(C)S(=O)(=O)c1ccc(-c2cc(C(=O)NC[C@H]3CC[C@H](CNC(=O)OC4CCOCC4)CC3)c3ccccc3n2)cc1 [Example 140] , please.
Result: 3310

---

Entries annotated with measured pIC50
target: Human recombinant Acetyl-CoA Carboxylase 2 (ACC2) (Homo sapiens); assay: Assay X: ACC2 inhibition, inorganic phosphate (malachite green); type: biochemical; settings: Assay X: 37° C., 1.5 h, 5 min pre-incubation
Scale for pIC50: -log10 of concentration given in mol/L; no unit attached.

MOLECULE: CC(C)(C)OC(=O)NC[C@H]1CC[C@H](CNC(=O)c2cc(-c3ccc(NC(CO)CO)nc3)nc3ccccc23)CC1 [Example 164]
pIC50: 6.48
//
MOLECULE: CN(C)CCN1CCN(c2cc(C(=O)NC[C@H]3CC[C@H](CNC(=O)OC(C)(C)C)CC3)c3ccccc3n2)CC1=O [Example 219]
pIC50: 6.05
//
MOLECULE: CN1CCN(c2ccc(-c3cc(C(=O)NC[C@H]4CC[C@H](CNC(=O)OCC5CCCO5)CC4)c4ccccc4n3)cn2)CC1 (stereo partly drawn) [Example 127]
pIC50: 6.06
//
MOLECULE: CC(C)(C)OC(=O)NC[C@H]1CC[C@H](CNC(=O)c2cc(N3CCC(CC(O)CN4CCCC4)CC3)nc3ccccc23)CC1 (relative stereo) [Example 206]
pIC50: 6.89
//
MOLECULE: CN(C)CC(O)CC1CCN(c2cc(C(=O)NC[C@H]3CC[C@H](CNC(=O)OC(C)(C)C)CC3)c3ccccc3n2)CC1 (stereo partly drawn) [Example 205]
pIC50: 6.85

Continue with the next molecule.
Task: Value lookup for pIC50; key = CC(C)(C)OC(=O)NC[C@H]1CC[C@H](CNC(=O)c2cc(-c3ccc(OCC(N)=O)nc3)nc3ccccc23)CC1 [Example 178]
Result: 6.48

---

Quick reference: IC50 of the listed items.
target: Human recombinant Acetyl-CoA Carboxylase 1 (ACC1) (Homo sapiens, UniProt Q13085); assay: Assay Y: ACC1 inhibition, inorganic phosphate (Malachite Green); assay type: biochemical; details: Assay Y: room temperature, 3 hr, 15 min preincubation
Note: unit nM is implicit; provide only the numeric part.

Some compounds with known IC50 results, for comparison:
COMPOUND_SMILES: CN(C)CCCOc1ccc(-c2cc(C(=O)NC[C@H]3CC[C@H](CNC(=O)OC(C)(C)C)CC3)c3ccccc3n2)cn1
TESTED_SYSTEM: Human recombinant Acetyl-CoA Carboxylase 1 (ACC1) (Homo sapiens, UniProt Q13085)
EXPERIMENTAL_VALUE: 300
//
COMPOUND_SMILES: CCOC(=O)NC[C@H]1CC[C@H](CNC(=O)c2cc(-c3ccc(C(=O)N(C)C)cc3)nc3ccccc23)CC1
TESTED_SYSTEM: Human recombinant Acetyl-CoA Carboxylase 1 (ACC1) (Homo sapiens, UniProt Q13085)
EXPERIMENTAL_VALUE: 4850

Task: Would you mind telling me what IC50 value was observed for "CN(C)CCNc1ccc(-c2cc(C(=O)NC[C@H]3CC[C@H](CNC(=O)OC(C)(C)C)CC3)c3ccccc3n2)cn1" ?
Result: 180

Task: Entry "CN1CCN(c2ccc(-c3cc(C(=O)NC[C@H]4CC[C@H](CNC(=O)OCC(F)F)CC4)c4ccccc4n3)cn2)CC1" please
Result: 960

---

target: Human recombinant Acetyl-CoA Carboxylase 1 (ACC1) (Homo sapiens); test: Assay Y: ACC1 inhibition, inorganic phosphate (Malachite Green); format: biochemical; settings: Assay Y: room temperature, 3 hr, 15 min preincubation
PARAMETER_MEASURED: IC50 (nM)
Please reply with the bare figure in nM and do not write the unit itself.

Some solved entries appear below for comparison.
COMPOUND_SMILES: CC(C)(C)OC(=O)NC[C@H]1CC[C@H](CNC(=O)c2cc(-c3cccc(CNC(N)=O)c3)nc3ccccc23)CC1
UNIT_ABBREV: nM
IC50: 780

COMPOUND_SMILES: CC(C)(C)OC(=O)NC[C@H]1CC[C@H](CNC(=O)c2cc(-c3cccc(CN)c3)nc3ccccc23)CC1
UNIT_ABBREV: nM
IC50: 220

// moving on: another record for IC50
Task: What value of IC50 has been reported for the following molecule? "CCOC(=O)NC[C@H]1CC[C@H](CNC(=O)c2cc(-c3ccccc3)nc3ccccc23)CC1"
Result: 3070

---

target: Human recombinant Acetyl-CoA Carboxylase 1 (ACC1) (Homo sapiens, UniProt Q13085); assay: Assay X: ACC1 inhibition, inorganic phosphate (malachite green); format: biochemical; details: Assay X: 37° C., 1.5 h, 5 min pre-incubation
Below is a list of entries, each paired with its recorded IC50 value.
# output: bare number, implied unit nM

// solved cases for IC50 follow
COMPOUND: CN(C)CCC1CCN(c2cc(C(=O)NC[C@H]3CC[C@H](CNC(=O)OC(C)(C)C)CC3)c3ccccc3n2)CC1 [Example 193]
IC50, nM: 440
//
COMPOUND: CN1CCN(c2ccc(-c3cc(C(=O)NC[C@H]4CC[C@H](CNC(=O)OCc5cnccn5)CC4)c4ccccc4n3)cn2)CC1 [Example 131]
IC50, nM: 5250
//
COMPOUND: CN(C)CC(F)CC1CCN(c2cc(C(=O)NC[C@H]3CC[C@H](CNC(=O)OC(C)(C)C)CC3)c3ccccc3n2)CC1 (stereo partly shown) [Example 237]
IC50, nM: 1090
//
COMPOUND: CN(C)CCOc1ccc(-c2cc(C(=O)NC[C@H]3CC[C@H](CNC(=O)OC(C)(C)C)CC3)c3ccccc3n2)cc1 [Example 203]
IC50, nM: 630

Task: Give Human recombinant Acetyl-CoA Carboxylase 1 (ACC1) (Homo sapiens, UniProt Q13085) IC50 for CC(C)(C)OC(=O)NC[C@H]1CC[C@H](CNC(=O)c2cc(N3CCC(CCN4CCC4)CC3)nc3ccccc23)CC1 [Example 234]
Result: 950

Task: Continue with CC(C)(C)OC(=O)NC[C@H]1CC[C@H](CNC(=O)c2cc(-c3cn[nH]c3)nc(-c3cccc(CN)c3)c2)CC1 [Example 239]
Result: 740

Task: Try this compound next: CC(C)(C)OC(=O)NC[C@H]1CC[C@H](CNC(=O)c2cc(-c3ccc(N4CNC(=O)C4)nc3)nc3ccccc23)CC1 [Example 172]
Result: 3500

// provenance: patent US20090306133A1
